settings: Day 15; G3-G9 groups; single IP dose; Mean±SEM
For each of the compounds below, state its Weight change rate, Day 15.
Answer with the figure and its unit, nothing else.

{"line.notation": "CC(C)(C)OC(=O)Nc1ccn([C@@H]2O[C@H](CO)[C@@H](O)C2(F)F)c(=O)n1", "Weight change rate, Day 15": "3.40 ± 1.34%"}
{"line.notation": "O=C(Nc1ccn([C@@H]2O[C@H](CO)[C@@H](O)C2(F)F)c(=O)n1)OCc1ccc([N+](=O)[O-])cc1", "Weight change rate, Day 15": "6.31 ± 1.39 %"}

State the recorded Weight change rate, Day 15 for every item in the following list.
1. O=C(Nc1ccn([C@@H]2O[C@H](CO)[C@@H](O)C2(F)F)c(=O)n1)OCc1ccccc1
2. CC(C)(C)OC(=O)Nc1ccn([C@@H]2O[C@H](COC(=O)Cn3cnc([N+](=O)[O-])c3)[C@@H](O)C2(F)F)c(=O)n1
3. O=C(Nc1nc(=O)n([C@@H]2O[C@H](CO)[C@@H](O)C2(F)F)cc1Br)OCc1ccccc1
4. CCCCOC(=O)Nc1nc(=O)n([C@@H]2O[C@H](CO)[C@@H](O)C2(F)F)cc1Br

Given back:
1: 8.84 ± 4.33%; 2: 5.50 ± 3.26%; 3: 7.71 ± 1.47%; 4: 8.29 ± 0.00%
